assay: chemical genetic growth profiling, strain panel (AID 1159580);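 note: tested at 20 µM; growth read once vehicle control cultures reached saturation at 30 °C; 1 = growth at the plate median or of vehicle wells; lower values mean less growth of the strain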; details: S. cerevisiae deletion strains, growth OD, locus YNL307C, strain MCK1, active compounds read low
The campaign covered roughly 5,500 compounds. About 2,000 (36%) were called active. Not shown: some 18% with an inconclusive outcome. This is one part of the list.
Property Measured: normalized growth

Note to self: normalized growth recorded for O=C(O)c1cc([N+](=O)[O-])ccc1NCCCc1ccccc1 was 0.939 (inactive)

# normalized growth of COc1cc2c(cc1O)CCNC2C (configuration not stated) = 0.969 (inactive)

// COC1(C)CCC2OC2(C)CCC2C1CC2(C)C (configuration not stated) : normalized growth value = 1.01 (inactive)

Reported normalized growth ( O=C(CCBr)N1CCN(C(=O)CCBr)CC1 ) = 0.997 (inactive)

Form: compound = NCCc1c[nH]c2ccccc12 ; normalized growth = 0.984 (inactive)

Reported normalized growth for CCN(CC)CCNC(=O)c1cc(Cl)c(N)cc1OC was 0.992 (inactive)

The compound identified as C=C(C)[C@@H]1CC[C@]2(CO)CC[C@]3(C)[C@H](CCC4[C@@]5(C)CC[C@H](O)C(C)(C)C5CC[C@]43C)C12 (some centres not stated) registered its normalized growth at 0.988 (inactive)

normalized growth for CC(=O)N[C@@H](Cc1c[nH]c2ccccc12)C(=O)O is 1.03 (inactive)

The compound identified as CNC(Cc1c[nH]c2ccccc12)C(=O)O (configuration not stated) registered its normalized growth at 0.988 (inactive)

The value of normalized growth measured for the compound COc1cc(/C=C/C=O)cc(OC)c1OC turned out to be 1 (inactive)

Recorded result, OC(c1cc(C(F)(F)F)nc2c(C(F)(F)F)cccc12)C1CCCCN1 (configuration not stated) , normalized growth: 0.992 (inactive)

The reported value for CC(=O)Oc1cccc(C(=O)O)c1OC(C)=O in terms of normalized growth is 1.02 (inactive)
